Test system: up to 32 different microorganisms
Assay: in vitro antibacterial activity (MIC), agar dilution on Brain Heart Infusion (BHI) agar with Steers replicator
Assay type: cell-based
Conditions: organism code VV; unit assumed
Procedure: Representative compounds of the present invention were assayed in vitro for antibacterial activity as follows: Twelve petri dishes containing successive aqueous dilutions of the test compound mixed with 10 mL of sterilized Brain Heart Infusion (BHI) agar (Difco 0148-01-5) were prepared. Each plate was inoculated with 1:100 (or 1:10 for slow-growing strains, such as Micrococcus and Streptococcus) dilutions of up to 32 different microorganisms, using a Steers replicator block. […]
Hi there, I'd appreciate the recorded MIC for every entry that follows.
Answers are plain numbers, in µg/mL.

Take a look at these entries with their results.
>  <molecule>
CCC1OC(=O)C(C)C(=O)C(C)C(OC2OC(C)CC(N(C)C)C2O)C(C)(OCCCc2cnc3ccccc3c2)CC(C)C(=O)C(C)C2NC(=O)OC12C (stereo not shown) [Example 242]

>  <numeric_readout>
0.39

$$$$
>  <molecule>
CC[C@H]1OC(=O)[C@H](C)C(=O)[C@H](C)[C@@H](O[C@@H]2O[C@H](C)C[C@H](N(C)C)[C@H]2O)[C@@](C)(OCC=O)C[C@@H](C)C(=O)[C@H](C)[C@H]2NC(=O)O[C@@]21C [Example 220]

>  <numeric_readout>
0.2

$$$$
>  <molecule>
CCC1OC(=O)C(C)C(=O)C(C)C(OC2OC(C)CC(N(C)C)C2O)C(C)(OCC#Cc2cnc3ccccc3c2)CC(C)C(=O)C(C)C2NC(=O)OC12C (stereo not shown) [Example 247]

>  <numeric_readout>
0.01

$$$$

Could you now look at the following molecule, please?
Give the measured MIC for CC[C@H]1OC(=O)[C@H](C)C(=O)[C@H](C)[C@@H](O[C@@H]2O[C@H](C)C[C@H](N(C)C)[C@H]2O)[C@@](C)(OCC=NOCc2ccc3ccccc3c2)C[C@@H](C)C(=O)[C@H](C)[C@H]2NC(=O)O[C@@]21C [Example 236]
0.2

====

Hi there, I'd appreciate the recorded MIC for every entry that follows.
Test system: up to 32 different microorganisms
Test: in vitro antibacterial activity (MIC), agar dilution on Brain Heart Infusion (BHI) agar with Steers replicator
Format: cell-based
Settings: organism code QQ; unit assumed
Experimental: Representative compounds of the present invention were assayed in vitro for antibacterial activity as follows: Twelve petri dishes containing successive aqueous dilutions of the test compound mixed with 10 mL of sterilized Brain Heart Infusion (BHI) agar (Difco 0148-01-5) were prepared. Each plate was inoculated with 1:100 (or 1:10 for slow-growing strains, such as Micrococcus and Streptococcus) dilutions of up to 32 different microorganisms, using a Steers replicator block. […]

>  <compound>
CC[C@H]1OC(=O)[C@H](C)C(=O)[C@H](C)[C@@H](O[C@@H]2O[C@H](C)C[C@H](N(C)C)[C@H]2O)[C@@](C)(OCC=NOc2ccccc2)C[C@@H](C)C(=O)[C@H](C)[C@H]2NC(=O)O[C@@]21C

>  <result>
> 100 µg/mL

$$$$

Hi team, please reply with MIC for each item in this list.
1. CCC1OC(=O)C(C)C(=O)C(C)C(OC2OC(C)CC(N(C)C)C2O)C(C)(OCC=Cc2ccc3ncc(-c4cccs4)cc3c2)CC(C)C(=O)C(C)C2NC(=O)OC12C (stereo not drawn)
2. CC[C@H]1OC(=O)[C@H](C)C(=O)[C@H](C)[C@@H](O[C@@H]2O[C@H](C)C[C@H](N(C)C)[C@H]2O)[C@@](C)(OCC=Cc2cnc3ccc(C(=O)O)cc3c2)C[C@@H](C)C(=O)[C@H](C)[C@H]2NC(=O)O[C@@]21C
3. CCC1OC(=O)C(C)C(=O)C(C)C(OC2OC(C)CC(N(C)C)C2O)C(C)(OCC=Cc2cccc(-c3ccccc3)c2)CC(C)C(=O)C(C)C2NC(=O)OC12C (stereo not drawn)

1. > 100 µg/mL
2. > 100 µg/mL
3. > 100 µg/mL

Hi team, please reply with MIC for each item in this list.
1. CC[C@H]1OC(=O)[C@H](C)C(=O)[C@H](C)[C@@H](O[C@@H]2O[C@H](C)C[C@H](N(C)C)[C@H]2O)[C@@](C)(OCC#Cc2ccc3cc(OC)ccc3c2)C[C@@H](C)C(=O)[C@H](C)[C@H]2NC(=O)O[C@@]21C
2. CC[C@H]1OC(=O)[C@H](C)C(=O)[C@H](C)[C@@H](O[C@@H]2O[C@H](C)C[C@H](N(C)C)[C@H]2O)[C@@](C)(OCC=NOCc2ccc3ncccc3c2)C[C@@H](C)C(=O)[C@H](C)[C@H]2NC(=O)O[C@@]21C

["> 100 µg/mL", "50 µg/mL"]

====

Hi there, I'd appreciate the recorded MIC for every entry that follows.
tested on: up to 32 different microorganisms; assay: in vitro antibacterial activity (MIC), agar dilution on Brain Heart Infusion (BHI) agar with Steers replicator; type: cell-based; details: Streptococcus Pneumonia 5649 (code ZZA); unit assumed

Take a look at these entries with their results.
>  <compound>
CCC1OC(=O)C(C)C(=O)C(C)C(OC2OC(C)CC(N(C)C)C2O)C(C)(OCC=Cc2cccnc2)CC(C)C(=O)C(C)C2NC(=O)OC12C (stereo not drawn)

>  <result>
0.5 µg/mL

$$$$
>  <compound>
CC[C@H]1OC(=O)[C@H](C)C(=O)[C@H](C)[C@@H](O[C@@H]2O[C@H](C)C[C@H](N(C)C)[C@H]2O)[C@@](C)(OCC=Cc2ccc(Cl)cc2)C[C@@H](C)C(=O)[C@H](C)[C@H]2OC(=O)O[C@@]21C

>  <result>
0.5 µg/mL

$$$$

Give the measured MIC for `C=CCO[C@@]1(C)C[C@@H](C)C(=O)[C@H](C)[C@H]2N(C)C(=O)O[C@]2(C)[C@@H](CC)OC(=O)[C@H](C)C(=O)[C@H](C)[C@H]1O[C@@H]1O[C@H](C)C[C@H](N(C)C)[C@H]1O`
0.5 µg/mL

====

Hi there, I'd appreciate the recorded MIC for every entry that follows.
System: up to 32 different microorganisms
Assay: in vitro antibacterial activity (MIC), agar dilution on Brain Heart Infusion (BHI) agar with Steers replicator
Format: cell-based
Details: organism code KK; unit assumed
Protocol: Representative compounds of the present invention were assayed in vitro for antibacterial activity as follows: Twelve petri dishes containing successive aqueous dilutions of the test compound mixed with 10 mL of sterilized Brain Heart Infusion (BHI) agar (Difco 0148-01-5) were prepared. Each plate was inoculated with 1:100 (or 1:10 for slow-growing strains, such as Micrococcus and Streptococcus) dilutions of up to 32 different microorganisms, using a Steers replicator block. […]
Your answer should be a number followed by the unit of measure.

>  <compound>
CC[C@H]1OC(=O)[C@H](C)C(=O)[C@H](C)[C@@H](O[C@@H]2O[C@H](C)C[C@H](N(C)C)[C@H]2O)[C@@](C)(OCCNCCCc2cnc3ccccc3c2)C[C@@H](C)C(=O)[C@H](C)[C@H]2NC(=O)O[C@@]21C [Example 225]

>  <observable>
MIC

>  <result>
0.01 µg/mL

$$$$

Hi team, please reply with MIC for each item in this list.
1. CC[C@H]1OC(=O)[C@H](C)C(=O)[C@H](C)[C@@H](O[C@@H]2O[C@H](C)C[C@H](N(C)C)[C@H]2O)[C@@](C)(OCC#Cc2ccc3nc(C)ccc3c2)C[C@@H](C)C(=O)[C@H](C)[C@H]2NC(=O)O[C@@]21C [Example 255]
2. CC[C@H]1OC(=O)[C@H](C)C(=O)[C@H](C)[C@@H](O[C@@H]2O[C@H](C)C[C@H](N(C)C)[C@H]2O)[C@@](C)(OCCNCc2ccc3ncccc3c2)C[C@@H](C)C(=O)[C@H](C)[C@H]2NC(=O)O[C@@]21C [Example 227]
3. CCC1OC(=O)C(C)C(=O)C(C)C(OC2OC(C)CC(N(C)C)C2O)C(C)(OCC=Cc2ccc3cc(OC)ccc3c2)CC(C)C(=O)C(C)C2NC(=O)OC12C (stereo not drawn) [Example 283]
4. CC[C@H]1OC(=O)[C@H](C)C(=O)[C@H](C)[C@@H](O[C@@H]2O[C@H](C)C[C@H](N(C)C)[C@H]2O)[C@@](C)(OCC=NOCc2cccc3ccccc23)C[C@@H](C)C(=O)[C@H](C)[C@H]2NC(=O)O[C@@]21C [Example 235]
5. CCC1OC(=O)C(C)C(=O)C(C)C(OC2OC(C)CC(N(C)C)C2O)C(C)(OCC=Cc2cnc3ccc(F)cc3c2)CC(C)C(=O)C(C)C2NC(=O)OC12C (stereo not drawn) [Example 215, R is —CH2CH═CH-(6-fluoro-3-quinolyl)]

1: 0.02 µg/mL; 2: 0.05 µg/mL; 3: 0.02 µg/mL; 4: 0.01 µg/mL; 5: 0.01 µg/mL

====

tested on: up to 32 different microorganisms; experiment: in vitro antibacterial activity (MIC), agar dilution on Brain Heart Infusion (BHI) agar with Steers replicator; type: cell-based; conditions: organism code KK; unit assumed
observable: MIC (mg/L)
Numbers only, in mg/L.

Take a look at these entries with their results.
>  <compound>
CC[C@H]1OC(=O)[C@H](C)C(=O)[C@H](C)[C@@H](O[C@@H]2O[C@H](C)C[C@H](N(C)C)[C@H]2O)[C@@](C)(OCC=NOCc2ccc3ccccc3n2)C[C@@H](C)C(=O)[C@H](C)[C@H]2NC(=O)O[C@@]21C [Example 232]

>  <numeric_readout>
0.02

$$$$
>  <compound>
CC[C@H]1OC(=O)[C@H](C)C(=O)[C@H](C)[C@@H](O[C@@H]2O[C@H](C)C[C@H](N(C)C)[C@H]2O)[C@@](C)(OCC#Cc2ccc3cc(OC)ccc3c2)C[C@@H](C)C(=O)[C@H](C)[C@H]2NC(=O)O[C@@]21C [Example 252]

>  <numeric_readout>
0.02

$$$$

Give the measured MIC for CC[C@H]1OC(=O)[C@H](C)C(=O)[C@H](C)[C@@H](O[C@@H]2O[C@H](C)C[C@H](N(C)C)[C@H]2O)[C@@](C)(OCCNCCc2ccccc2)C[C@@H](C)C(=O)[C@H](C)[C@H]2NC(=O)O[C@@]21C [Example 222]
0.02
